Give measured mAb binding (MFI) for each item. Keep answers brief.
# tgt: T1, GARS, endogenous in H929 multiple myeloma cells (human, UniProt P41250 37-739, limits assumed)
# T1 construct: Native protein pulled down from H929 lysates; also called Glycyl-tRNA synthetase; GlyRS
# T1 sequence: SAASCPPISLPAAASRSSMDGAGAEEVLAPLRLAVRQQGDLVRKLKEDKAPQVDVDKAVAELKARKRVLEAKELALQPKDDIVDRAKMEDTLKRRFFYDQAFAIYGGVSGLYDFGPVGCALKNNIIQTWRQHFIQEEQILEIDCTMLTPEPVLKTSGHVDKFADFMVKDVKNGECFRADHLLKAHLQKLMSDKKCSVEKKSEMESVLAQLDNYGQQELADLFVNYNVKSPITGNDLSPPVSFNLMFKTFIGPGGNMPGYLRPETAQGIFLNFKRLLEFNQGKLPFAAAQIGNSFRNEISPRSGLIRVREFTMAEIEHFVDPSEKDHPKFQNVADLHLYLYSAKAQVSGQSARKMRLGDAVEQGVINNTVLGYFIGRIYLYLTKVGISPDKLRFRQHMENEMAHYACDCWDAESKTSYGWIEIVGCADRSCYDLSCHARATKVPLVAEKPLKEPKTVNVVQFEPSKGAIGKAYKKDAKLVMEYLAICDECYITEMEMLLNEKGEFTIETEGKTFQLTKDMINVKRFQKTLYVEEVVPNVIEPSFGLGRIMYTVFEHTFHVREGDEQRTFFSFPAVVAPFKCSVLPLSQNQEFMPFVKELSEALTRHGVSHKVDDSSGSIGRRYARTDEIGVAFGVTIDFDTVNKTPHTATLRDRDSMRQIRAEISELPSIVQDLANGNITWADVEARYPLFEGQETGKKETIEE
# procedure-details: flow cytometry, H929 + NT Green siRNA; None 416; surface target GARS putative

Some solved entries appear below for comparison.
{"binder": "HW-56 chimeric rabbit-human IgG1 LA/LA/PG (antibody, V domains shown, Fc-silenced (L234A/L235A/P329G) IgG1, kappa; Alexa Fluor 647-labeled in single-step flow cytometry; Cluster C-45) VH: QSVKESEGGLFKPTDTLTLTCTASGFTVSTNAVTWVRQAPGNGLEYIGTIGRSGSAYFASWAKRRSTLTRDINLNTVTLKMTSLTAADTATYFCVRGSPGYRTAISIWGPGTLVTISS VL: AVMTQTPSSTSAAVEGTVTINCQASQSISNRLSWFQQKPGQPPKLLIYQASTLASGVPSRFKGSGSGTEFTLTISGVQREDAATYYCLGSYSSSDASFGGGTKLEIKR", "readout-kind": "mAb binding (MFI)", "test-value": 499000}
{"binder": "HW-45 chimeric rabbit-human IgG1 LA/LA/PG (antibody, V domains shown, Fc-silenced (L234A/L235A/P329G) IgG1, lambda; Alexa Fluor 647-labeled in single-step flow cytometry; Prototype of cluster C-45) VH: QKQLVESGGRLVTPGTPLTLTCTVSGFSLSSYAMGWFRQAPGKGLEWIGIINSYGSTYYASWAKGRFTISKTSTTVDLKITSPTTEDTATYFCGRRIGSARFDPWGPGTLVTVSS VL: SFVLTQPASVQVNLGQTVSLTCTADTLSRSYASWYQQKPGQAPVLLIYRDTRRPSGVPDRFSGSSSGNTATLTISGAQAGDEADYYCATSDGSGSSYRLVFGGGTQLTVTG", "readout-kind": "mAb binding (MFI)", "test-value": 29500}
{"binder": "HW-28 chimeric rabbit-human IgG1 LA/LA/PG (antibody, V domains shown, Fc-silenced (L234A/L235A/P329G) IgG1, lambda; Alexa Fluor 647-labeled in single-step flow cytometry; Cluster C-45) VH: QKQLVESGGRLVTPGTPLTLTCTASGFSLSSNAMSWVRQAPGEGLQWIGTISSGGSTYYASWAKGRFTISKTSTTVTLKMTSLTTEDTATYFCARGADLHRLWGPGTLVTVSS VL: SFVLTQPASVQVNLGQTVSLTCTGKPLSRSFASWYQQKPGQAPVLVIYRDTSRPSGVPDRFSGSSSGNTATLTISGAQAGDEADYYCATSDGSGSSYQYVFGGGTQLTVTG", "readout-kind": "mAb binding (MFI)", "test-value": 50700}
{"binder": "HW-16 chimeric rabbit-human IgG1 LA/LA/PG (antibody, V domains shown, Fc-silenced (L234A/L235A/P329G) IgG1, kappa; Alexa Fluor 647-labeled in single-step flow cytometry; Cluster C-45) VH: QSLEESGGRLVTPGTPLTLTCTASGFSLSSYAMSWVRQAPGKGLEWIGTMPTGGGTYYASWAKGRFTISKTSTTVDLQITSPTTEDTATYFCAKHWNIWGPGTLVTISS VL: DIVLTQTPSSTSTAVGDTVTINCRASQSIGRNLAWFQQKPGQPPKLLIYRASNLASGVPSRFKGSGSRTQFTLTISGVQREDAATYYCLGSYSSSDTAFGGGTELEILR", "readout-kind": "mAb binding (MFI)", "test-value": 59500}
{"binder": "HW-81 chimeric rabbit-human IgG1 LA/LA/PG (antibody, V domains shown, Fc-silenced (L234A/L235A/P329G) IgG1, lambda; Alexa Fluor 647-labeled in single-step flow cytometry; Cluster C-45) VH: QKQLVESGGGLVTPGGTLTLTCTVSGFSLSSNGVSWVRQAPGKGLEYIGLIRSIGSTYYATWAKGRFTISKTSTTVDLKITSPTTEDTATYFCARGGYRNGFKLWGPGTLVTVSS VL: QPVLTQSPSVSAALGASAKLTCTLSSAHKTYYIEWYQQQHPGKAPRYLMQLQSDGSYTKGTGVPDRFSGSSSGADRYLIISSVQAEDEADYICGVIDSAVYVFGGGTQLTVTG", "readout-kind": "mAb binding (MFI)", "test-value": 693000}

Below: the item to evaluate.
What does the record list as mAb binding (MFI) for HW-8 chimeric rabbit-human IgG1 LA/LA/PG (antibody, V domains shown, Fc-silenced (L234A/L235A/P329G) IgG1, kappa; Alexa Fluor 647-labeled in single-step flow cytometry; Cluster C-45) VH: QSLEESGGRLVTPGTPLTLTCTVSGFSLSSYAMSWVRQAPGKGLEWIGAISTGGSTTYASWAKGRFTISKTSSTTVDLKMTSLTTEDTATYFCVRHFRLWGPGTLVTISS VL: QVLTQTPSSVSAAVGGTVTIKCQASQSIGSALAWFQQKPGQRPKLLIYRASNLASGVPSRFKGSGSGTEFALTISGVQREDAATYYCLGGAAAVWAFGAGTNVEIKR ?
15500
